Test system: OPM-2
assay: CellTiter-Glo proliferation assay (Example 6)
Type: cell-based
protocol conditions: Homo sapiens, OPM-2, 120 h; CD48 Mcl-1 ADCs and payload P1, 5 days; read-out: IC50 (nM) OPM2
property: IC50 (nM)

> print(dat)
                                   molecule  unit.info  test.result
1  COc1ccccc1-c1nccc(COc2ccccc2C[C@@H](Oc2ncnc3sc(-c4ccc(F)cc4)c(-c4ccc(OCCN5CCN(C)CC5)c(Cl)c4C)c23)C(=O)O)n1 [P1]         nM        0.136

====

Test system: KMS-21 BM
assay: CellTiter-Glo proliferation assay, single agent and with venetoclax (Example 19)
Assay type: cell-based
protocol conditions: 120 h, + 5 nM Venetoclax, 5 days
property: IC50 (nM)

> print(dat)
                                   compound  system.tested  test.result
1  COc1ccccc1-c1nccc(COc2ccccc2C[C@@H](Oc2ncnc3sc(-c4ccc(F)cc4)c(-c4ccc(OCCN5CCN(C)CC5)c(Cl)c4C)c23)C(=O)O)n1 [P1]      KMS-21 BM         5.57

====

System: KMS-27
assay: CellTiter-Glo proliferation assay, single agent and with venetoclax (Example 19)
Type: cell-based
protocol conditions: KMS-27, 120 h, KMS-27, + 5 nM Venetoclax, 5 days
property: IC50 (nM)

> print(dat)
                                   molecule  test.result
1  COc1ccccc1-c1nccc(COc2ccccc2C[C@@H](Oc2ncnc3sc(-c4ccc(F)cc4)c(-c4ccc(OCCN5CCN(C)CC5)c(Cl)c4C)c23)C(=O)O)n1 [P1]         20.1

====

Test system: MOLM-13
assay: CellTiter-Glo proliferation assay (Example 6)
Type: cell-based
protocol conditions: Homo sapiens, MOLM-13, 120 h; CD33 Mcl-1 ADCs and payload P1, 5 days; read-out: IC50 (nM) MOLM13
property: IC50

> print(dat)
                                   compound  property  test.result
1  COc1ccccc1-c1nccc(COc2ccccc2C[C@@H](Oc2ncnc3sc(-c4ccc(F)cc4)c(-c4ccc(OCCN5CCN(C)CC5)c(Cl)c4C)c23)C(=O)O)n1 [P1]      IC50      2.44 nM

====

Test system: KMS-21 BM
assay: CellTiter-Glo proliferation assay, anti-CD48 ADCs (Example 18)
Assay type: cell-based
protocol conditions: 120 h, 5 days
pIC50: −log10 of the molar value.
property: pIC50

> print(dat)
                                   molecule  test.result
1  COc1ccccc1-c1nccc(COc2ccccc2C[C@@H](Oc2ncnc3sc(-c4ccc(F)cc4)c(-c4ccc(OCCN5CCN(C)CC5)c(Cl)c4C)c23)C(=O)O)n1 [P1]         9.03

====

System: representative cancer cell lines
assay: CellTiter-Glo proliferation assay (Example 6), summary over the cell lines
Type: cell-based
protocol conditions: 120 h, representative cancer cell lines except HER2-positive, 5 days; read-out: IC50 values (range over cell lines)
property: IC50

> print(dat)
                                   compound  property      test.result
1  COc1ccccc1-c1nccc(COc2ccccc2C[C@@H](Oc2ncnc3sc(-c4ccc(F)cc4)c(-c4ccc(OCCN5CCN(C)CC5)c(Cl)c4C)c23)C(=O)O)n1 [P1]      IC50  0.038 to 5.6 nM
